- Target Entity: hTRPV1 (Homo sapiens)
- Sequence (Q8NER1 whole entry): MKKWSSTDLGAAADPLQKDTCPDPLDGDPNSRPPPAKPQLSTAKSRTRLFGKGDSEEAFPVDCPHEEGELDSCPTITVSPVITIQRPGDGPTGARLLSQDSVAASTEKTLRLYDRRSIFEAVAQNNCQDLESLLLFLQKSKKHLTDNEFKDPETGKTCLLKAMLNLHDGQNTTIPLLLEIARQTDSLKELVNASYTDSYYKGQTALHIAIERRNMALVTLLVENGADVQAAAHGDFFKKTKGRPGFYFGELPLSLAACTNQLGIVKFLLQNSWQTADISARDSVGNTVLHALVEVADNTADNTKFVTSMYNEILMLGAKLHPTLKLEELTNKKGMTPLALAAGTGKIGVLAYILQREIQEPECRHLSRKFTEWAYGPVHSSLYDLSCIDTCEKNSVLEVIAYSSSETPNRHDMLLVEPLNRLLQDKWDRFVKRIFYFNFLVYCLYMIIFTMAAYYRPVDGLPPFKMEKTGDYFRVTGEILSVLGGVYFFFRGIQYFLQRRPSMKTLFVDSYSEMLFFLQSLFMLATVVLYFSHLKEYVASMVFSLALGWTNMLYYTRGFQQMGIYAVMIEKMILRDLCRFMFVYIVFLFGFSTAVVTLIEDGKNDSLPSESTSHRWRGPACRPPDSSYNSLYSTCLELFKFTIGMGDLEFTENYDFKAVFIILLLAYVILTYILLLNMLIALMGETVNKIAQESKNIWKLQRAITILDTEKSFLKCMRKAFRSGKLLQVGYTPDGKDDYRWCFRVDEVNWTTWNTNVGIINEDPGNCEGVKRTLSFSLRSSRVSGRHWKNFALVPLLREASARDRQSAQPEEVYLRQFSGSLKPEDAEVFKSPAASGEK
- Experiment Description: hTRPV1 antagonism of capsaicin
- Type: cell-based
- Condition: less potent than parent
Reported fold loss in antagonistic potency compared to the corresponding parent (1 or 2) is given for each of the following molecules.

• Cc1ccc(C(C(=O)NCc2ccc(C(F)(F)F)nc2N2CCC(C)CC2)c2ccc(NS(C)(=O)=O)c(F)c2)cc1 (stereo not drawn) [Compound 36] = 3–8 fold
• CS(=O)(=O)Nc1ccc(C(C(=O)NCc2ccc(C(F)(F)F)nc2SC2CCCCC2)C2CCCCC2)cc1F (stereo not drawn) [Compound 25] = > 100 fold
• CS(=O)(=O)Nc1ccc(C(C(=O)NCc2ccc(C(F)(F)F)nc2SC2CCCCC2)C2CCCC2)cc1F (stereo not drawn) [Compound 23] = > 100 fold
• Cc1ccc(C(C(=O)NCc2ccc(C(F)(F)F)nc2SC2CCCCC2)c2ccc(NS(C)(=O)=O)c(F)c2)cc1 (stereo not drawn) [Compound 37] = 3–8 fold
• Cc1ccccc1C(C(=O)NCc1ccc(C(F)(F)F)nc1SC1CCCCC1)c1ccc(NS(C)(=O)=O)c(F)c1 (stereo not drawn) [Compound 33] = > 140 fold

Switching to the query record.
Q. Name the reported fold loss in antagonistic potency compared to the corresponding parent (1 or 2) value associated with the molecule CCC(C(=O)NCc1ccc(C(F)(F)F)nc1N1CCC(C)CC1)c1ccc(NS(C)(=O)=O)c(F)c1 (stereo not drawn) [Compound 21]
A. 5 fold

----------
- Target Entity: UniProtKB Q8NER1
- Experiment Description: hTRPV1 antagonism of capsaicin
- Type: cell-based
- Condition: less potent than parent
Recorded Metric: fold loss in antagonistic potency compared to the corresponding parent (1 or 2)

Before answering, review these 3 worked examples.
* CC1CCN(c2nc(C(F)(F)F)ccc2CNC(=O)C(c2ccc(NS(C)(=O)=O)c(F)c2)C2CCCC2)CC1 (stereo not shown) | > 100 fold
* CC1CCN(c2nc(C(F)(F)F)ccc2CNC(=O)C(c2ccc(NS(C)(=O)=O)c(F)c2)C2CCCCC2)CC1 (stereo not shown) | > 100 fold
* Cc1ccccc1C(C(=O)NCc1ccc(C(F)(F)F)nc1N1CCC(C)CC1)c1ccc(NS(C)(=O)=O)c(F)c1 (stereo not shown) | > 140 fold

Q. Name the reported fold loss in antagonistic potency compared to the corresponding parent (1 or 2) value associated with the compound Cc1cccc(C(C(=O)NCc2ccc(C(F)(F)F)nc2SC2CCCCC2)c2ccc(NS(C)(=O)=O)c(F)c2)c1 (stereo not shown)
A. 60 fold
